Reference for the values: ChEMBL document CHEMBL4732242

target desc: Homeodomain-interacting protein kinase 2 (Homo sapiens, UniProt Q9H2X6)
Sequence (Q9H2X6 whole entry): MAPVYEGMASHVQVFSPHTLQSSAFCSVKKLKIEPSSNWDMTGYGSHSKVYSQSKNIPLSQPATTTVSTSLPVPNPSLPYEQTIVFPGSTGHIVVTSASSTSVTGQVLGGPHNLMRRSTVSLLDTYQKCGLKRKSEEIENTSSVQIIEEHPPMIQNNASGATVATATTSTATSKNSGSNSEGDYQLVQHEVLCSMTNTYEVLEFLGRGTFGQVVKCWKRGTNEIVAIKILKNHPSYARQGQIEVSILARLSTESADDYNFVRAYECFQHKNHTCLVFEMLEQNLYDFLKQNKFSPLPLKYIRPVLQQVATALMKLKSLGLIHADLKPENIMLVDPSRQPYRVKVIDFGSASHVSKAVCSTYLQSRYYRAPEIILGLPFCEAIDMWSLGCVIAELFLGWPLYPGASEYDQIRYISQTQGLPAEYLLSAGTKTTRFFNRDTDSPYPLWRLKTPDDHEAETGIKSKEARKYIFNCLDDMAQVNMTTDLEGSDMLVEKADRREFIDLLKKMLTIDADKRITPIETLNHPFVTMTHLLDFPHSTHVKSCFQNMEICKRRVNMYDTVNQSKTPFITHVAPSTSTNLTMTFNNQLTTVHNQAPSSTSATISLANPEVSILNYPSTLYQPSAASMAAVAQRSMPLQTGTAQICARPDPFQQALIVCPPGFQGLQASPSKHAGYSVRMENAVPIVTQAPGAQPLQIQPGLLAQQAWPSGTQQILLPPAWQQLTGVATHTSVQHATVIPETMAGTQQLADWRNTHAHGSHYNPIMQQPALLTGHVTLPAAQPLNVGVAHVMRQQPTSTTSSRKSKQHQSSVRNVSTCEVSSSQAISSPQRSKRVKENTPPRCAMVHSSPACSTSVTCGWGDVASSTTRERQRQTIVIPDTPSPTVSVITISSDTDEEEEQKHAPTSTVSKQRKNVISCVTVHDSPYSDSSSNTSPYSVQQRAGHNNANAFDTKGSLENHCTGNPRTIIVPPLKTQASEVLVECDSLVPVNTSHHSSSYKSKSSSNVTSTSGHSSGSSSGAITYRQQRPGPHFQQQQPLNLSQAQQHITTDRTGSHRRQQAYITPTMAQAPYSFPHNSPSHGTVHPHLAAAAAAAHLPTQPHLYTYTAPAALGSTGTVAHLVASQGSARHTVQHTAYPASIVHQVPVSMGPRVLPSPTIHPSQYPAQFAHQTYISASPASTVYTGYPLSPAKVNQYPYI
assay overview: Inhibition of HIPK2 (unknown origin) by selectscreen kinase assay
measurement label: pIC50
// pIC50 is dimensionless: -log10 of concentration (M)

Query string: Answer with the recorded pIC50 for the molecule listed here: `O=C1NC(=O)/C(=C\c2c[nH]c(=O)c(-c3ccc(N4CCNCC4)nc3)c2)S1`
Result string: 7.13

====

target desc: Homeodomain-interacting protein kinase 2 (Homo sapiens, UniProt Q9H2X6)
assay overview: Inhibition of HIPK2 (unknown origin)
measurement label: pIC50
Would you please state pIC50, meaning minus log10 of the concentration in mol/L, as a bare number?

Query string: Assign pIC50 to the following record: COc1cc2c(Oc3ccc(NC(=O)C4(C(=O)Nc5ccc(F)cc5)CC4)cc3F)ccnc2cc1OCCCN1CCOCC1 [FORETINIB]
Result string: 7.00
